Test system: WPMY1-GM130-SQSTM1
protocolText: phenotypically active (imaging signature differs from DMSO and reproducible) at any of 0.3-9 uM (binary (1 = active, 0 = inactive)); higher = active
particulars: treatment time: 24 h
Structures can show the parent of a compound that is named as a salt.
Labels: active, inactive

[[record]]
compound = "CCN(CC)CCNc1ccc(CO)c2sc3ccccc3c(=O)c12 [hycanthone]"
grouplabel = "active"

[[record]]
compound = "CCCNC(=O)NS(=O)(=O)c1ccc(Cl)cc1 [chlorpropamide]"
grouplabel = "inactive"

[[record]]
compound = "O=C(c1ccccc1)c1ccc2n1CCC2C(=O)O (configuration not stated) [ketorolac]"
grouplabel = "inactive"

[[record]]
compound = "Fc1ccccc1CNCc1ccc(-c2ccnc3[nH]ccc23)cc1 [OXA 06 dihydrochloride]"
grouplabel = "active"

[[record]]
compound = "COc1cc2nc(-c3cc(F)ccc3O)nc(N[C@@H]3CNC[C@H]3C(C)(C)O)c2cc1OC"
grouplabel = "active"

[[record]]
compound = "CNCC(O)c1ccc(OC(=O)C(C)(C)C)c(OC(=O)C(C)(C)C)c1 (configuration not stated) [dipivefrine]"
grouplabel = "active"

[[record]]
compound = "Cc1ccc(/C(=C/CN2CCCC2)c2cccc(/C=C/C(=O)O)n2)cc1 [acrivastine]"
grouplabel = "active"

[[record]]
compound = "c1ccc2c(c1)CCCC2C1=NCCN1 (configuration not stated) [tetrahydrozoline]"
grouplabel = "inactive"

[[record]]
compound = "CC(C)(C)c1cc(NC(=O)Nc2ccc(-c3cn4c(n3)sc3cc(OCCN5CCOCC5)ccc34)cc2)no1 [quizartinib]"
grouplabel = "active"

[[record]]
compound = "O=[N+]([O-])c1cc(Cl)ccc1S(=O)(=O)c1ccccc1"
grouplabel = "active"

[[record]]
compound = "CC(Oc1ccc(O)cc1)(P(=O)(O)O)P(=O)(O)O"
grouplabel = "inactive"

[[record]]
compound = "CC(C)(C)c1ccc(S(=O)(=O)/C=C/C#N)cc1"
grouplabel = "active"


====

System: HepG2-CANX-COX4
protocolText: lowest phenotypically active concentration; higher = less potent
particulars: treatment time: 24 h
Where a name gives a salt, the structure may show the parent alone.
Recorded lowest phenotypically active concentration by entry
readoutType: lowest phenotypically active concentration (µM)

[[record]]
compound = "CCOC(=O)CCNc1cc(N2CCc3ccccc3CC2)nc(-c2ccccn2)n1"
testedtarget = "HepG2-CANX-COX4"
valueunits = "µM"
operator = "="
recordedmeasurement = 3

[[record]]
compound = "O=C(O)C[C@H](O)C[C@H](O)/C=C/c1c(C2CC2)nc2ccccc2c1-c1ccc(F)cc1"
testedtarget = "HepG2-CANX-COX4"
valueunits = "µM"
operator = "="
recordedmeasurement = 1

[[record]]
compound = "CC(C)N(CCCNC(=O)Nc1ccc(C(C)(C)C)cc1)C[C@H]1O[C@@H](n2cc(Br)c3c(N)ncnc32)[C@H](O)[C@@H]1O"
testedtarget = "HepG2-CANX-COX4"
valueunits = "µM"
operator = "="
recordedmeasurement = 9

[[record]]
compound = "c1ccc2c(c1)Cc1c(Nc3ccc4c(c3)OCCO4)n[nH]c1-2"
testedtarget = "HepG2-CANX-COX4"
valueunits = "µM"
operator = "="
recordedmeasurement = 3

[[record]]
compound = "NC1(C(=O)N[C@@H](CCO)c2ccc(Cl)cc2)CCN(c2ncnc3[nH]ccc23)CC1"
testedtarget = "HepG2-CANX-COX4"
valueunits = "µM"
operator = "="
recordedmeasurement = 3

[[record]]
compound = "CN(C)CC(=O)Nc1ccc2[nH]c(=O)c3ccccc3c2c1 [PJ 34 hydrochloride]"
testedtarget = "HepG2-CANX-COX4"
valueunits = "µM"
operator = "="
recordedmeasurement = 9

[[record]]
compound = "CN1CCC(=C2c3ccccc3CC(=O)c3sccc32)CC1"
testedtarget = "HepG2-CANX-COX4"
valueunits = "µM"
operator = "="
recordedmeasurement = 9

[[record]]
compound = "O=C(Cc1ccc(-c2ccc(OCCN3CCOCC3)cc2)cn1)NCc1ccccc1"
testedtarget = "HepG2-CANX-COX4"
valueunits = "µM"
operator = "≤"
recordedmeasurement = 0.3

[[record]]
compound = "C=CC(=O)Nc1cccc(CN2C(=O)N(c3c(Cl)c(OC)cc(OC)c3Cl)Cc3cnc(NCCCCN(CC)CC)nc32)c1 [FIIN 1 hydrochloride]"
testedtarget = "HepG2-CANX-COX4"
valueunits = "µM"
operator = "="
recordedmeasurement = 3

[[record]]
compound = "O=C1NC(=O)C(c2ccccc2[N+](=O)[O-])=C1Nc1ccc(O)c(Cl)c1"
testedtarget = "HepG2-CANX-COX4"
valueunits = "µM"
operator = "="
recordedmeasurement = 9

[[record]]
compound = "C[C@@H]1CN(CC(=O)Nc2ccc3c(c2)Cc2cccc(-c4cc(=O)cc(N5CCOCC5)o4)c2S3)C[C@H](C)O1"
testedtarget = "HepG2-CANX-COX4"
valueunits = "µM"
operator = "="
recordedmeasurement = 3

[[record]]
compound = "CC(=O)NCC(=O)N1[C@@H]2CC[C@H]1c1ccc(Nc3ncc(C(F)(F)F)c(NC4CCC4)n3)cc12"
testedtarget = "HepG2-CANX-COX4"
valueunits = "µM"
operator = "≤"
recordedmeasurement = 0.3

[[record]]
compound = "CC1=C(/C=C/C(C)=C/C=C/C(C)=C/C(=O)O)C(C)(C)CCC1"
testedtarget = "HepG2-CANX-COX4"
valueunits = "µM"
operator = "≤"
recordedmeasurement = 0.3

[[record]]
compound = "CCC(=O)N1CCOc2c(cc(-c3ccc(OC)c(OC)c3)cc2OC[C@H]2CCCN(C)C2)C1"
testedtarget = "HepG2-CANX-COX4"
valueunits = "µM"
operator = "="
recordedmeasurement = 9

[[record]]
compound = "CCC(C)(C)C(=O)O[C@H]1C[C@@H](C)C=C2C=C[C@H](C)[C@H](CC[C@@H]3C[C@@H](O)CC(=O)O3)[C@H]21"
testedtarget = "HepG2-CANX-COX4"
valueunits = "µM"
operator = "="
recordedmeasurement = 1

[[record]]
compound = "Oc1cccc(Nc2ccnc3cc(-c4cccc(CN5CCOCC5)c4)sc23)c1 [LCB 03-0110 dihydrochloride]"
testedtarget = "HepG2-CANX-COX4"
valueunits = "µM"
operator = "="
recordedmeasurement = 1

[[record]]
compound = "Clc1ccccc1C(c1ccccc1)(c1ccccc1)n1ccnc1"
testedtarget = "HepG2-CANX-COX4"
valueunits = "µM"
operator = "="
recordedmeasurement = 9

